Origin of values: patent US7605178B2

biological target: EP4 (Homo sapiens, UniProt P35408); experiment: EP4 flipr
Sequence (P35408 whole entry): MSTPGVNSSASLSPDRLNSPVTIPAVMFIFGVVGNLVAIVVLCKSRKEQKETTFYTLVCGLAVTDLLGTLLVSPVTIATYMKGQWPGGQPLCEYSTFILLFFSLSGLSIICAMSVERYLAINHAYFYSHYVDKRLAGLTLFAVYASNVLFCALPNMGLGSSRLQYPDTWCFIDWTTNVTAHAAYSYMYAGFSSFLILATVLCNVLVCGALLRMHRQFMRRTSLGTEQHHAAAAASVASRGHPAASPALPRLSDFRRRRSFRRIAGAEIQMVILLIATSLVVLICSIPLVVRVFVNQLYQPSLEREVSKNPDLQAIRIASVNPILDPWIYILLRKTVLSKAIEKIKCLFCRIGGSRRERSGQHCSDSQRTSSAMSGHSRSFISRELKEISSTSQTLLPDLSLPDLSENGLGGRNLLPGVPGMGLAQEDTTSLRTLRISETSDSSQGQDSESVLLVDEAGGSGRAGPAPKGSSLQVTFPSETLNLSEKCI
ASSAY_READOUT: EC50

Some compounds with known EC50 results, for comparison:
[[record]]
smiles = "O=C(O)c1ccc(CCC[C@@H]2[C@@H](CSc3cc(Cl)cc(Cl)c3)[C@H](O)C[C@H]2Cl)s1"
assay_readout = "EC50"
reported_value = "> 10 µM"

[[record]]
smiles = "O=C(O)c1ccc(CCC[C@@H]2[C@@H](CSc3cc(F)cc(F)c3)[C@H](O)C[C@H]2Cl)s1"
assay_readout = "EC50"
reported_value = "> 10 µM"

[[record]]
smiles = "O=C(O)CCC/C=C\\C[C@@H]1[C@@H](CNc2cc(Cl)cc(Cl)c2)[C@H](O)C[C@H]1Cl"
assay_readout = "EC50"
reported_value = "> 10 µM"


// EC50 lookup, compound = O=C(O)CCC/C=C\C[C@@H]1[C@@H](CSc2cc(Cl)cc(Cl)c2)[C@H](O)C[C@H]1Cl , result: > 10 µM

###

Target: UniProt P43116
Experiment: EP2 cAMP
Format: cell-based
Text: U.S. patent application Ser. No. 11/553,143, filed on Oct. 26, 2006, incorporated by reference herein, describes the methods used to obtain the in vitro data in the table below.
ASSAY_READOUT: EC50 (µM)

[[record]]
compound = "CC(=O)N(C[C@@H]1[C@@H](C/C=C\\CCCC(=O)O)[C@H](Cl)C[C@H]1O)c1cc(Cl)cc(Cl)c1 [compound 10]"
reported_value = 0.029


A: O=C(O)c1ccc(CCC[C@@H]2[C@@H](CSc3cc(Cl)cc(Cl)c3)[C@H](O)C[C@H]2Cl)s1 [compound 20]
B: O=C(O)c1ccc(CCC[C@@H]2[C@@H](CNc3cc(Cl)cc(Cl)c3)[C@H](O)C[C@H]2Cl)s1 [compound 15]
Exam item: // pick min by EC50: A , B Your choice should be expressed through its label.
Marked response: A
(A: 0.00011 µM, B: 0.11 µM)

###

molecular target: EP4 (Homo sapiens, UniProt P35408)
pKi: −log10 of the molar value.
ASSAY_READOUT: pKi

1: O=C(O)c1ccc(CCC[C@@H]2[C@@H](CSc3cc(F)cc(F)c3)[C@H](O)C[C@H]2Cl)s1
2: O=C(O)c1ccc(CCC[C@@H]2[C@@H](CSc3cc(Cl)cc(Cl)c3)[C@H](O)C[C@H]2Cl)s1
Exam item: // pick min by pKi: 1 , 2 Your choice should be expressed through its label.
Marked response: 1
(1: 5.63, 2: 6.08)

###

target: EP2 (Homo sapiens); test: EP2 cAMP; format: cell-based
Sequence (P43116 whole entry): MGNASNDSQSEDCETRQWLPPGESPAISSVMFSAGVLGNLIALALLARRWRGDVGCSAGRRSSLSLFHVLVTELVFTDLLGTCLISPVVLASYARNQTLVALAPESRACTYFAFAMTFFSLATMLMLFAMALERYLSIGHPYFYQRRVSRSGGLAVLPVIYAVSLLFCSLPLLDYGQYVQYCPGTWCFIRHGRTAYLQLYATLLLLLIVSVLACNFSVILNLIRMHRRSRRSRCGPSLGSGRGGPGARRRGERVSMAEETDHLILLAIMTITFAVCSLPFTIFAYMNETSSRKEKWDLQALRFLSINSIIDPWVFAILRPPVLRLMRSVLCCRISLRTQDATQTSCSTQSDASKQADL
ASSAY_READOUT: EC50 (nM)

[[record]]
compound = "O=C(O)c1ccc(CCC[C@@H]2[C@@H](C[S+]([O-])c3cc(Cl)cc(Cl)c3)[C@H](O)C[C@H]2Cl)s1 (stereo partly drawn) [compound 22]"
unit_abbreviation = "nM"
reported_value = 0.4


1: O=C(O)CCC/C=C\C[C@@H]1[C@@H](CSc2cc(Cl)cc(Cl)c2)[C@H](O)C[C@H]1Cl [compound 5]
2: O=C(O)c1ccc(CCC[C@@H]2[C@@H](CSc3cc(F)cc(F)c3)[C@H](O)C[C@H]2Cl)s1 [compound 25]
Exam item: // pick min by EC50: 1 , 2 Your choice should be expressed through its label.
Marked response: 1
